- TEST_NAME: Antioxidant activity assessed as relative scavenging rate constant for photolysis-induced peroxyl scavenging activity by measuring Kaox/Kst ratio using CYPMPO spin trap by ESR spectroscopic method
- Format: functional
Threshold 20: Ratio strictly smaller gives fulfilled, otherwise not fulfilled.

{"COMPOUND": "COc1cc(/C=C/c2ccc(O)cc2)cc(OC)c1", "CATEGORY_LABEL": "not fulfilled"}
{"COMPOUND": "Cc1c(C)c2c(c(C)c1O)CCC(C)(C(=O)O)O2 (configuration not stated)", "CATEGORY_LABEL": "not fulfilled"}
{"COMPOUND": "COc1ccc(/C=C/c2cc(O)cc(O)c2)cc1O", "CATEGORY_LABEL": "not fulfilled"}
{"COMPOUND": "COc1cc(/C=C/c2ccc(OC)c(OC)c2)cc(OC)c1", "CATEGORY_LABEL": "fulfilled"}
{"COMPOUND": "Oc1cc(O)cc(/C=C/c2ccc(O)c(O)c2)c1", "CATEGORY_LABEL": "not fulfilled"}
{"COMPOUND": "Oc1cc(O)cc(/C=C/c2ccc(O)cc2O)c1", "CATEGORY_LABEL": "fulfilled"}

====

- TEST_NAME: Antioxidant activity assessed as Trolox equivalents of photolysis-induced alkoxyl scavenging activity using DMPO spin trap by ESR spectroscopic method
- Type: functional
Threshold 0.2 equiv: Activity strictly smaller gives true (1), otherwise false (0).

{"CHEM_SMILES": "COc1cc(/C=C/c2ccc(OC)c(OC)c2)cc(OC)c1", "CATEGORY_LABEL": "false (0)"}
{"CHEM_SMILES": "COc1ccc(/C=C/c2cc(O)cc(O)c2)cc1O", "CATEGORY_LABEL": "true (1)"}
{"CHEM_SMILES": "Oc1cc(O)cc(/C=C/c2ccc(O)c(O)c2)c1", "CATEGORY_LABEL": "false (0)"}
{"CHEM_SMILES": "COc1cc(/C=C/c2ccc(O)cc2)cc(OC)c1", "CATEGORY_LABEL": "true (1)"}
{"CHEM_SMILES": "Oc1cc(O)cc(/C=C/c2ccc(O)cc2O)c1", "CATEGORY_LABEL": "true (1)"}
